These entries and their values trace back to patent US9796716B2.

Test system: Balb/c mice
Protocol: Mouse Arthus
Format: in vivo
Test context: oral gavage at 30 mg/kg, 1 h pre-treatment
Observed property: efficacy in mouse Arthus (Evan's blue extravasation)

Compound	Measured value
CC(C)n1nc(-c2ccc(Oc3cc(F)cc(OCc4cncn4C)c3)cc2)c2c(N)ncnc21 [Compound 79]	demonstrated efficacy
Nc1ncnc2c1c(-c1ccc(Oc3cccc(OCc4cncs4)c3)cc1)nn2C1CCOCC1 [Compound 24]	demonstrated efficacy
Cc1ncc(COc2cc(F)cc(Oc3ccc(-c4nn(C5CCOCC5)c5ncnc(N)c45)cc3F)c2)s1 [Compound 59]	demonstrated efficacy
Cc1ncc(COc2cccc(Oc3ccc(-c4nn(C5CCOCC5)c5ncnc(N)c45)cc3F)c2)s1 [Compound 62]	demonstrated efficacy
Nc1ncnc2c1c(-c1ccc(Oc3cc(F)cc(OCc4cncs4)c3)cc1)nn2C1CCOCC1 [Compound 46]	demonstrated efficacy
Cc1ncc(COc2cc(F)cc(Oc3ccc(-c4nn(C5CCCC5)c5ncnc(N)c45)cc3)c2)cn1 [Compound 107]	demonstrated efficacy
Cc1ccc(COc2cc(F)cc(Oc3ccc(-c4nn(C(C)C)c5ncnc(N)c45)cc3)c2)cn1 [Compound 85]	demonstrated efficacy
Cn1cncc1COc1cc(F)cc(Oc2ccc(-c3nn(C4CCCC4)c4ncnc(N)c34)cc2)c1 [Compound 82]	demonstrated efficacy
